In this section we review reported MIC values for a set of compounds.
# Test system: Mycobacterium tuberculosis
# method summary: Antimicrobial activity against Mycobacterium tuberculosis H37Rv after 7 days by microplate alamar blue assay
# Type: functional
# recorded conditions: 168 h

Look over these answered cases.
Fc1ccccc1Cn1cc(Cn2ccc3cncnc32)nn1 > 25 µg/mL
Clc1ccc(-n2cc(Cn3ccc4cncnc43)nn2)cc1 25 µg/mL
Fc1cccc(-n2cc(Cn3ccc4cncnc43)nn2)c1 > 25 µg/mL
O=[N+]([O-])c1ccc(-n2cc(Cn3ccc4cncnc43)nn2)cc1 > 25 µg/mL
NNC(=O)c1ccncc1 0.1 µg/mL
O=C(O)c1cn(C2CC2)c2cc(N3CCNCC3)c(F)cc2c1=O 1.56 µg/mL

I would be grateful if you could share the reported MIC for Brc1ccc(Cn2cc(Cn3ccc4cncnc43)nn2)cc1 .
> 25 µg/mL

* * *

# MIC values compiled below
# System: Mycobacterium tuberculosis
# method summary: Antimicrobial activity against Mycobacterium tuberculosis H37Rv after 7 days by microplate alamar blue assay
# Type: functional
# recorded conditions: 168 h
Response body: numeric value in µg/mL, unit text excluded.

Check out these entries, answers already filled in.
CC[C@@H](CO)NCCN[C@@H](CC)CO 1.56
COC(=O)CCn1cc(Cn2ccc3cncnc32)nn1 1.56
Cc1onc(-c2ccccc2)c1Cn1cc(Cn2ccc3cncnc32)nn1 6.25
Clc1ccc(Cn2cc(Cn3ccc4cncnc43)nn2)cc1 3.12

# evaluate next
Look at this molecule and give its reported MIC. c1ccc(-c2cc(Cn3cc(Cn4ccc5cncnc54)nn3)on2)cc1
0.78

* * *

# Tested on: Mycobacterium tuberculosis
# method summary: Antimicrobial activity against Mycobacterium tuberculosis H37Rv after 7 days by microplate alamar blue assay
# Type: functional
# recorded conditions: 168 h
The entries below come with measured MIC values attached.
Give the value in µg/mL but do not write µg/mL after it.

Examples with their reported MIC follow.
Oc1ccccc1-n1cc(Cn2ccc3cncnc32)nn1 6.25
Fc1ccc(-c2cc(Cn3cc(Cn4ccc5cncnc54)nn3)on2)cc1 0.78
O=c1oc2ccccc2cc1-n1cc(Cn2ccc3cncnc32)nn1 3.12
Fc1ccc(Oc2ccc(Cn3cc(Cn4ccc5cncnc54)nn3)cc2)cc1 3.12
C=CCn1cc(Cn2ccc3cncnc32)nn1 6.25

Can you share its MIC? I mean this compound: c1ccc(Sc2ccccc2-n2cc(Cn3ccc4cncnc43)nn2)cc1
6.25

Return reported MIC; argument: COc1cccc(-n2cc(Cn3ccc4cncnc43)nn2)c1[N+](=O)[O-]
25

* * *

# System: Mycobacterium tuberculosis
# method summary: Antimicrobial activity against Mycobacterium tuberculosis H37Rv after 7 days by microplate alamar blue assay
# Assay type: functional
# recorded conditions: 168 h
Entries and their MIC
I only need the number, in µg/mL, no unit after it.

CO[C@H]1/C=C/O[C@@]2(C)Oc3c(C)c(O)c4c(O)c(c(/C=N/N5CCN(C)CC5)c(O)c4c3C2=O)NC(=O)/C(C)=C\C=C\[C@H](C)[C@H](O)[C@@H](C)[C@@H](O)[C@@H](C)[C@H](OC(C)=O)[C@@H]1C 0.2

Consider the compound c1ccc(-c2cc(Cn3cc(Cn4ccc5cncnc54)nn3)cc(-c3ccccc3)n2)cc1 and give its measured MIC.
6.25

Entry Clc1ccc(Oc2ccccc2)cc1-n1cc(Cn2ccc3cncnc32)nn1 has what MIC?
6.25

* * *

MIC values by entry
# Test system: Mycobacterium tuberculosis
# method summary: Antimicrobial activity against Mycobacterium tuberculosis H37Rv after 7 days by microplate alamar blue assay
# Assay type: functional
# recorded conditions: 168 h

# example entries with known answers
c1ccc(Cn2cc(Cn3ccc4cncnc43)nn2)cc1 > 25 µg/mL
Brc1ccccc1Cn1cc(Cn2ccc3cncnc32)nn1 > 25 µg/mL
COc1ccc(Cn2cc(Cn3ccc4cncnc43)nn2)cc1 > 25 µg/mL
Fc1ccc(Cn2cc(Cn3ccc4cncnc43)nn2)cc1 > 25 µg/mL

Moving on to the next compound.
Name the recorded MIC for CCOC(=O)/C=C/Cn1cc(Cn2ccc3cncnc32)nn1 .
> 25 µg/mL
